The entries below come with measured pKd values attached.
Target: T1, human LTBR ECD (S28-M227) N- and C-terminally extended-Fc-fusion wt kih HRYF-Avi-His biotinylated (P1AE7979) (human, UniProt P0DOX5 223-449 = IgG part, biotinylated avi tag)
T1 construct: also called hu LTBR
Test: SPR, IgG captured;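 further: rate constants and KD obtained by fitting double-referenced sensorgrams to a 1:1 Langmuir binding model, with dissociation followed for 600 s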
pKd: −log10 of the molar value.
assayReadout: pKd

binder="P1AF0080 (antibody, human IgG1, kappa, L234A L235A, V domains shown, human IgG1 PG LALA; from transgenic rabbit immunization; also called LTBR (0080)) VH: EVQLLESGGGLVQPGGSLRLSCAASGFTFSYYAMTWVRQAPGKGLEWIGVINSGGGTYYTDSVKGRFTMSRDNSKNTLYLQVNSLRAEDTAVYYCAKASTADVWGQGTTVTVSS VL: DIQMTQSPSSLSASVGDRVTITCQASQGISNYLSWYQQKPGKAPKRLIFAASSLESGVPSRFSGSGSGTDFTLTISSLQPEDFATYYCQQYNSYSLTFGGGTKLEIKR" assayreadout=pKd reportedresult=8.52
binder="P1AE1873 (CBE11) (antibody, human IgG1, kappa, L234A L235A, V domains shown) VH: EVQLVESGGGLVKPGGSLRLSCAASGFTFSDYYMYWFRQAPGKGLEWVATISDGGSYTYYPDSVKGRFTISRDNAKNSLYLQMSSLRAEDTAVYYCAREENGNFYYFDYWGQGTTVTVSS VL: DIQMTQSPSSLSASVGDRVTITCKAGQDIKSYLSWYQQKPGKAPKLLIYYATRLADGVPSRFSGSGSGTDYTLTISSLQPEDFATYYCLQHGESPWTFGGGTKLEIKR" assayreadout=pKd reportedresult=9.00
binder="P1AF0079 (antibody, human IgG1, kappa, L234A L235A, V domains shown, human IgG1 PG LALA; from transgenic rabbit immunization; also called LTBR (0079)) VH: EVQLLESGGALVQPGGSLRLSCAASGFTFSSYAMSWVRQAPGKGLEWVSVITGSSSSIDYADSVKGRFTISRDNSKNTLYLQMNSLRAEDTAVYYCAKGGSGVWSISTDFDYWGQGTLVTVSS VL: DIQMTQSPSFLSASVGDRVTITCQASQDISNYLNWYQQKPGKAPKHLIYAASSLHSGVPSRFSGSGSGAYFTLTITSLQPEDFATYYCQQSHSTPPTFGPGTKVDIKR" assayreadout=pKd reportedresult=7.51
binder="P1AE9452 (antibody, human IgG1, kappa, L234A L235A, V domains shown, human IgG1 PG LALA; from transgenic rabbit immunization; also called LTBR (9452)) VH: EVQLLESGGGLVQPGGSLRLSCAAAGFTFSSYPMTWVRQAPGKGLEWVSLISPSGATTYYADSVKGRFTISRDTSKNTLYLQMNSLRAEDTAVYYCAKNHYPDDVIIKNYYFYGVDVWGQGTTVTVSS VL: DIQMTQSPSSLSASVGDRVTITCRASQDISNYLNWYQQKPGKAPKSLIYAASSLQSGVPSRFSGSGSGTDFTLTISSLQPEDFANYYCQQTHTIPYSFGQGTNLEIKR" assayreadout=pKd reportedresult=9.52
